Each entry below carries its reported percent inhibition of Factor 11 at 9.375 nM.
# Tested on: human Factor 11 mRNA
# test_protocol: Dose-dependent inhibition of human Factor 11 in HepG2 cells, lipofectin 9.375-75 nM (Example 4)
# Type: cell-based
# setup_conditions: 9.375 nM, relative to untreated control cells
Strand notation (5' to 3'): a small letter for the sugar, then the base; units joined by * are phosphorothioate-linked, units joined directly phosphodiester-linked; [ ] holds rarer units or linkages, { } end groups; capitals alone tell only the bases. e = 2'-O-(2-methoxyethyl) (MOE); [5mC] = 5-methylcytosine; d = 2'-deoxy (DNA)
reported_metric: percent inhibition of Factor 11 at 9.375 nM (%)

{"substance": "416993 (antisense e[5mC]*eT*dT*dT*dG*dA*dG*dA*dT*dT*d[5mC]*dT*dT*dT*dG*eG*eG*e[5mC]*e[5mC]*eA) [compound 416993]", "unit_tag": "%", "value": 15}
{"substance": "416896 (antisense eT*eT*eA*dT*dG*d[5mC]*d[5mC]*d[5mC]*dT*dT*d[5mC]*dA*dT*dG*dT*d[5mC]*dT*eA*eG*eG) [compound 416896]", "unit_tag": "%", "value": 22}
{"substance": "417002 (antisense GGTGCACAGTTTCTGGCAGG; 2-13-5 gapmer chemistry, further chemistry not given here) [compound 417002]", "unit_tag": "%", "value": 35}
{"substance": "412206 (antisense e[5mC]*e[5mC]*eG*eT*eG*d[5mC]*dA*dT*d[5mC]*dT*dT*dT*d[5mC]*dT*dT*eG*eG*e[5mC]*eA*eT) [compound 412206]", "unit_tag": "%", "value": 24}
{"substance": "416922 (antisense eG*e[5mC]*eA*d[5mC]*dA*dG*dT*dT*dT*d[5mC]*dT*dG*dG*d[5mC]*dA*dG*dG*e[5mC]*e[5mC]*eT) [compound 416922]", "unit_tag": "%", "value": 14}
{"substance": "416925 (antisense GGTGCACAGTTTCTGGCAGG; 3-14-3 gapmer chemistry, further chemistry not given here) [compound 416925]", "unit_tag": "%", "value": 13}
{"substance": "416908 (antisense eG*e[5mC]*eA*dA*d[5mC]*d[5mC]*dG*dG*dG*dA*dT*dG*dA*dT*dG*dA*dG*eT*eG*e[5mC]) [compound 416908]", "unit_tag": "%", "value": 36}
{"substance": "416842 (antisense eT*eG*eA*eG*eA*dT*dT*d[5mC]*dT*dT*dT*dG*dG*dG*d[5mC]*e[5mC]*eA*eT*eT*e[5mC]) [compound 416842]", "unit_tag": "%", "value": 18}
{"substance": "413467 (antisense eG*eG*eT*e[5mC]*e[5mC]*dA*d[5mC]*dA*dT*dA*dA*dA*dT*dG*dT*e[5mC]*eT*eT*eT*eG) [compound 413467]", "unit_tag": "%", "value": 35}
{"substance": "416924 (antisense eG*eT*eG*d[5mC]*dA*d[5mC]*dA*dG*dT*dT*dT*d[5mC]*dT*dG*dG*d[5mC]*dA*eG*eG*e[5mC]) [compound 416924]", "unit_tag": "%", "value": 25}
{"substance": "417003 (antisense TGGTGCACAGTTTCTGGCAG; 2-13-5 gapmer chemistry, further chemistry not given here) [compound 417003]", "unit_tag": "%", "value": 26}

###

# test_protocol: Viscosity of ISIS antisense oligonucleotides, micro-viscometer at 25 °C (Example 47)
# Format: physicochemical
# setup_conditions: in water, micro-viscometer at 25° C., at the concentration of the same line
Strand notation (5' to 3'): a small letter for the sugar, then the base; units joined by * are phosphorothioate-linked, units joined directly phosphodiester-linked; [ ] holds rarer units or linkages, { } end groups; capitals alone tell only the bases. e = 2'-O-(2-methoxyethyl) (MOE); [5mC] = 5-methylcytosine; d = 2'-deoxy (DNA)

{"substance": "416852 (antisense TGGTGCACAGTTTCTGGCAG; 5-10-5 gapmer, further chemistry not given here) [compound 416852]", "limit_qualifier": "=", "Viscosity (cP)": 29}
{"substance": "445509 (antisense e[5mC]*eG*eG*eA*e[5mC]*eG*dG*d[5mC]*dA*dT*dT*dG*dG*dT*eG*e[5mC]*eA*e[5mC]*eA*eG) [compound 445509]", "limit_qualifier": ">", "Viscosity (cP)": 100}
{"substance": "449709 (antisense eG*e[5mC]*eA*e[5mC]*dA*dG*dT*dT*dT*d[5mC]*dT*dG*dG*d[5mC]*eA*eG*eG*e[5mC]) [compound 449709]", "limit_qualifier": "=", "Viscosity (cP)": 65}
{"substance": "416858 (antisense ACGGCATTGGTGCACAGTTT; 5-10-5 gapmer, further chemistry not given here) [compound 416858]", "limit_qualifier": "=", "Viscosity (cP)": 10}
{"substance": "449711 (antisense eA*e[5mC]*dA*dG*dT*dT*dT*d[5mC]*dT*dG*dG*d[5mC]*eA*eG) [compound 449711]", "limit_qualifier": "=", "Viscosity (cP)": 6}
{"substance": "412225 (antisense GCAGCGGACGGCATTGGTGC; 5-10-5 MOE gapmer, further chemistry not given here) [compound 412225]", "limit_qualifier": ">", "Viscosity (cP)": 100}
{"substance": "416851 (antisense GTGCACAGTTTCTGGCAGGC; 5-10-5 gapmer, further chemistry not given here) [compound 416851]", "limit_qualifier": "=", "Viscosity (cP)": 26}
{"substance": "413481 (antisense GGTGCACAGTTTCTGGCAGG; 5-10-5 MOE gapmer, further chemistry not given here) [compound 413481]", "limit_qualifier": "=", "Viscosity (cP)": 23}
{"substance": "416859 (antisense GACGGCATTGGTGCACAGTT; 5-10-5 gapmer, further chemistry not given here) [compound 416859]", "limit_qualifier": "=", "Viscosity (cP)": 10}
{"substance": "413482 (antisense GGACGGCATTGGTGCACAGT; 5-10-5 MOE gapmer, further chemistry not given here) [compound 413482]", "limit_qualifier": "=", "Viscosity (cP)": "16."}
{"substance": "416860 (antisense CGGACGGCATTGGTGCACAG; 5-10-5 gapmer, further chemistry not given here) [compound 416860]", "limit_qualifier": ">", "Viscosity (cP)": 100}
{"substance": "445513 (antisense eG*e[5mC]*eA*eG*e[5mC]*eG*dG*dA*d[5mC]*dG*dG*d[5mC]*dA*dT*eT*eG*eG*eT*eG*e[5mC]) [compound 445513]", "limit_qualifier": "=", "Viscosity (cP)": 34}

###

Each entry below carries its reported aPTT ratio (INR).
# Test system: blood coagulation
# test_protocol: PT and aPTT assay in cynomolgus monkeys (Example 45)
# Type: in vivo
# setup_conditions: day 78; escalating dose regimen; platelet poor plasma
# Protocol: Groups, each consisting of two male and three female monkeys, were injected subcutaneously with ISIS 416838, ISIS 416850, ISIS 416858, ISIS 416864, or ISIS 417002 in escalating doses. […] Body weights were measured weekly. […] Blood samples were collected in tubes containing sodium citrate. PT and aPTT were determined in duplicate with an ACL 9000 coagulation instrument (Instrumentation Laboratory, Italy). […]

{"substance": "ISIS 416858: MOE gapmer, nucleobases 1275 to 1318 of SEQ ID NO: 1 (Table 8) (antisense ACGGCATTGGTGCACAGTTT; MOE gapmer, wing and gap sizes not given here)", "aPTT ratio (INR)": 1.79}
{"substance": "ISIS 416864: MOE gapmer, nucleobases 1275 to 1318 of SEQ ID NO: 1 (Table 8) (antisense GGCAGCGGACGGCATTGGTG; MOE gapmer, wing and gap sizes not given here)", "aPTT ratio (INR)": 1.18}
{"substance": "ISIS 417002: MOE gapmer, nucleobases 1275 to 1318 of SEQ ID NO: 1 (Table 8) (antisense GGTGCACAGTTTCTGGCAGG; MOE gapmer, wing and gap sizes not given here)", "aPTT ratio (INR)": 1.18}
{"substance": "ISIS 416850: MOE gapmer, nucleobases 1275 to 1318 of SEQ ID NO: 1 (Table 8) (antisense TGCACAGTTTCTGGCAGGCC; MOE gapmer, wing and gap sizes not given here)", "aPTT ratio (INR)": 1.88}
{"substance": "ISIS 416838: MOE gapmer, nucleobases 1018 to 1042 of SEQ ID NO: 1 (Table 6) (antisense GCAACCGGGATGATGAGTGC; MOE gapmer, wing and gap sizes not given here)", "aPTT ratio (INR)": 1.19}

###

# test_protocol: Hematology assays in cynomolgus monkeys (Example 45)
# Assay type: in vivo
# setup_conditions: day 85; escalating dose regimen
Each entry below carries its reported RBC count.
reported_metric: RBC count (µL⁻¹)

{"substance": "ISIS 416850: MOE gapmer, nucleobases 1275 to 1318 of SEQ ID NO: 1 (Table 8) (antisense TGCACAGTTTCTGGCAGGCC; MOE gapmer, wing and gap sizes not given here)", "value": "5.5e+06"}
{"substance": "ISIS 416838: MOE gapmer, nucleobases 1018 to 1042 of SEQ ID NO: 1 (Table 6) (antisense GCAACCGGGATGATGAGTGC; MOE gapmer, wing and gap sizes not given here)", "value": "5.5e+06"}
{"substance": "ISIS 416864: MOE gapmer, nucleobases 1275 to 1318 of SEQ ID NO: 1 (Table 8) (antisense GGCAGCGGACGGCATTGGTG; MOE gapmer, wing and gap sizes not given here)", "value": "5.4e+06"}
{"substance": "ISIS 416858: MOE gapmer, nucleobases 1275 to 1318 of SEQ ID NO: 1 (Table 8) (antisense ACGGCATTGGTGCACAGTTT; MOE gapmer, wing and gap sizes not given here)", "value": "5.5e+06"}
{"substance": "ISIS 417002: MOE gapmer, nucleobases 1275 to 1318 of SEQ ID NO: 1 (Table 8) (antisense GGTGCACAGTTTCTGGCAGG; MOE gapmer, wing and gap sizes not given here)", "value": "5.4e+06"}
